experiment: NCI Yeast Anticancer Drug Screen. Data for the bub3 strain (AID 167); details: S. cerevisiae bub3 mutant strain, hits give high values; at 50.0 µM unless noted
Compounds without any hit were thinned out: in the full panel of roughly 79,000, 15% have a hit.
Assign True to entries whose growth inhibition meets or exceeds 10%; assign False to the rest.

Reference set (4 entries):
>>> classification("CCOC(=O)c1ccc(N=Cc2ccc(N(CCC#N)CCC#N)cc2)cc1")
"False"
>>> classification("CCCCCCCCCCCCCOc1ccc(S(=O)(=O)/N=C(\\N)NC(N)=NCCCCCCCCCCCC)cc1")
"False"
>>> classification("C[C@@]1([N+](=O)[O-])CC2CCC1C2 (stereo partly specified)")
"False"
>>> classification("CCOC(=O)CC(c1ccccc1)C(C)(C(=O)OCC)C(=O)OCC (stereo unspecified)")
"True"

Query block: Assess whether reported growth inhibition for CNc1cc(C(C)C)ccc1C sits at 10% or higher.
Result block: True

Query block: Dear colleague, could you confirm whether COc1ccc(NC(=O)CC/C(CC(=O)c2ccco2)=N/NC(=O)C(N)=O)cc1 has growth inhibition at or above 10%?
Result block: False
